Values were extracted from patent US8957074B2.

Target: CDK4/cyclin D1 (Homo sapiens (Human), UniProt P11802)
Sequence (P11802 whole entry): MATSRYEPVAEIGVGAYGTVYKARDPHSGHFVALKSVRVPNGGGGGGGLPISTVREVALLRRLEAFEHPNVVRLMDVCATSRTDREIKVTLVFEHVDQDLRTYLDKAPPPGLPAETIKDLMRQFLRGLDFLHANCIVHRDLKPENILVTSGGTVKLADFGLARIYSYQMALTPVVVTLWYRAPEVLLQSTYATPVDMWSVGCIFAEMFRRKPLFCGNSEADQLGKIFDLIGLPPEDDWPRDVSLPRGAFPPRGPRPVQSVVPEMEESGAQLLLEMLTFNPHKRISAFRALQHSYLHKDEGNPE
Sequence (P24385 whole entry partner): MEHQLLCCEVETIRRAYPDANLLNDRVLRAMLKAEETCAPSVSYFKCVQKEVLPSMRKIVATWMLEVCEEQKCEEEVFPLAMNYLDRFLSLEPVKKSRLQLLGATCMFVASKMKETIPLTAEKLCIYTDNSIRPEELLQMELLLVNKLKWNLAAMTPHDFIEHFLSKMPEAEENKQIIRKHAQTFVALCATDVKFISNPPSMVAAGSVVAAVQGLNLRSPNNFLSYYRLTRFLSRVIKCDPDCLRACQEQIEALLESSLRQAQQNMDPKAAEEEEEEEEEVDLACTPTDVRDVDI
Assay: CDK4/cyclin D1 enzymatic activity assay (TR-FRET, phosphorylation of pRb at Ser780)
Assay type: biochemical
Settings: 0.3 nM CDK4/cyclin D1, 150 nM biotin-pRb (773-924), 3 μM ATP, 60 min at 22° C.; read-out: Biochemical CDK4 enzyme IC50
MEASUREMENT TYPE: pIC50
Bear in mind: pIC50 is minus log10 of a mol/L concentration; give just that figure.

Examples with their reported pIC50 follow.
CN(C)C(=O)c1cc2cnc(Nc3ccc(N4C[C@H]5CC[C@@H](CC4=O)N5CC(F)(F)F)cn3)nc2n1C1CCCC1 : 7.72
CN(C)C(=O)c1cc2cnc(Nc3ccc(C(=O)N4CC5CC[C@@H](C4)N5)cn3)nc2n1[C@H]1C[C@@H]2CC[C@H]1C2 : 7.57

For record CNC(=O)c1cc2cnc(Nc3ccc(C(=O)N4C[C@@H]5C[C@H]4CN5)cn3)nc2n1C1CCCC1 the listed pIC50 is 7.31

For record CN(C)C(=O)c1cc2cnc(Nc3ccc(C(=O)N4C[C@H]5CNC[C@@H](C4)C5O)cn3)nc2n1C1CCCC1 (some centres unmarked) the listed pIC50 is 7.77

====

System: phosphorylation of pRb at the Ser780 site in JeKo-1 mantle cell lymphoma cells
Test: CDK4 cellular assay: ELISA of pRb phosphorylation at Ser780 in JeKo-1 cells
Assay type: cell-based
Conditions: Homo sapiens, JeKo-1, JeKo-1 cells, p-pRb % inhibition adjusted with total pRb levels; read-out: Normalized cellular ppRb inhibition IC50
MEASUREMENT TYPE: pIC50
Bear in mind: pIC50 is minus log10 of a mol/L concentration; give just that figure.

Examples with their reported pIC50 follow.
CN(C)C(=O)c1cc2cnc(Nc3ccc(C(=O)N4C[C@@H]5CN[C@@H](C5)C4)cn3)nc2n1C1CCCC1 [Example 10] : 7.60
CN(C)C(=O)c1cc2cnc(Nc3ccc(C(=O)N4CCC[C@@H]5CCN[C@@H]5C4)cn3)nc2n1C1CCCC1 [Example 25] : 7.66
CN(C)C(=O)c1cc2cnc(Nc3ccc(N4CC5CCC(CC4=O)N5)cn3)nc2n1C1CCCCC1 (stereo not shown) [Example 131] : 7.62

Now consider a different compound.
For record CN(C)C(=O)c1cc2cnc(Nc3ccc(C(=O)N4CC5CNCC5C4)cn3)nc2n1C1CCCC1 (stereo not shown) [Example 32] the listed pIC50 is 6.67

====

Biological target: CDK4/cyclin D1 (Homo sapiens (Human))
Assay: CDK4/cyclin D1 enzymatic activity assay (TR-FRET, phosphorylation of pRb at Ser780)
Type: biochemical
Details: 0.3 nM CDK4/cyclin D1, 150 nM biotin-pRb (773-924), 3 μM ATP, 60 min at 22° C.; read-out: Biochemical CDK4 enzyme IC50
MEASUREMENT TYPE: IC50 (µM)
API: value field is a number in µM; no unit string.

Examples with their reported IC50 follow.
CC(C)[C@@H](N)C(=O)N1C2CCC1CN(C(=O)c1ccc(Nc3ncc4cc(C(=O)N(C)C)n(C5CCCC5)c4n3)nc1)C2 [Example 62] : 0.01
CN(C)C(=O)c1cc2cnc(Nc3ccc(N4C[C@@]5(CCCNC5)OC4=O)cn3)nc2n1C1CCCC1 [Example 109] : 0.012
CN(C)C(=O)c1cc2cnc(Nc3ccc(C(=O)N4CCN5CCC[C@@H]5C4)cn3)nc2n1C1CCCC1 [Example 21] : 0.047
CN(C)C(=O)c1cc2cnc(Nc3ccc(N4CC5(CCCNCC5)OC4=O)cn3)nc2n1C1CCCC1 (centres unmarked) [Example 103] : 0.017
CN(C)C(=O)c1cc2cnc(Nc3ccc(C(=O)N4CC5CCC4C5O)cn3)nc2n1C1CCCC1 (centres unmarked) [Example 26] : 0.038

For record CN(C)C(=O)c1cc2cnc(Nc3ccc(N4CC5(CCCNC5)OC4=O)cn3)nc2n1C1CCCC1 (centres unmarked) [Example 107] the listed IC50 is 0.009

For record CN(C)C(=O)c1cc2cnc(Nc3ccc(C(=O)N4CC5C[C@]5(N)C4)cn3)nc2n1C1CCCC1 (single isomer, unassigned) [Example 16] the listed IC50 is 0.015

For record CN(C)C(=O)c1cc2cnc(Nc3ccc(N4C[C@@H]5CC[C@H](CC4=O)N5)cn3)nc2n1C1CCCCC1 [Example 132] the listed IC50 is 0.019

====

Molecular target: CDK1/cyclin B (Homo sapiens (Human), UniProt P06493)
Sequence (P06493 whole entry, species assumed): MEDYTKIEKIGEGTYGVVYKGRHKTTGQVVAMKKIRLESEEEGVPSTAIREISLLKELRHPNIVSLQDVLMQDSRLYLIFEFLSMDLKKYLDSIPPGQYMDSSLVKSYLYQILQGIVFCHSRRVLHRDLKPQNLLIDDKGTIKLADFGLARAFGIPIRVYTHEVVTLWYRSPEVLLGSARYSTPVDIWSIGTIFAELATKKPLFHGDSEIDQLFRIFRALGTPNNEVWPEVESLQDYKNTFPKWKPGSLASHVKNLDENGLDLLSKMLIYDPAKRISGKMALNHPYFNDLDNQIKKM
Sequence (P14635 whole entry partner, species assumed): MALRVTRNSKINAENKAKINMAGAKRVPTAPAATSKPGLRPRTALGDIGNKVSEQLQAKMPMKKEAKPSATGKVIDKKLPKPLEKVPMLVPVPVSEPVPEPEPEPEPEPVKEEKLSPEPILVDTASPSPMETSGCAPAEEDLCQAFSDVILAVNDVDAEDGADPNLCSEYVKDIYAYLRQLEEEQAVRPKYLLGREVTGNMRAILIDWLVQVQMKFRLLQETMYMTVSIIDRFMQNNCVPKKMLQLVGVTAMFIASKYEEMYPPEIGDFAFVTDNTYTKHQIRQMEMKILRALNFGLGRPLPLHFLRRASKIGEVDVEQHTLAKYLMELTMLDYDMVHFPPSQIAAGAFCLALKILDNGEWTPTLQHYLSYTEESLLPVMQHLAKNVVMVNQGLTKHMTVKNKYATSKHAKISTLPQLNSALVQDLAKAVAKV
Test: CDK1/cyclin B enzymatic activity assay (IMAP-FP)
Type: biochemical
Details: […] CDK1/cyclin B, 100 nM Tamra Histone-H1 peptide, 20 μM ATP, 120 min at room temperature; read-out: Biochemical CDK1 enzyme IC50
MEASUREMENT TYPE: IC50

CN(C)C(=O)c1cc2cnc(Nc3ccc(C(=O)N4[C@@H]5CC[C@H]4C[C@@H](O)C5)cn3)nc2n1C1CCCC1 [Example 44] : > 15 µM
CN(C)C(=O)c1cc2cnc(Nc3ccc(C(=O)N4[C@@H]5CC[C@H]4C[C@H](O)C5)cn3)nc2n1C1CCCC1 [Example 43] : > 15 µM
CN(C)C(=O)c1cc2cnc(Nc3ccc(N4CC5(CC6CCC(C5)N6C)OC4=O)cn3)nc2n1C1CCCC1 (centres unmarked) [Example 102] : > 15 µM
CN(C)C(=O)c1cc2cnc(Nc3ccc(N4CCN5CCCC5C4=O)cn3)nc2n1C1CCCCC1 (centres unmarked) [Example 98] : > 15 µM
CN(C)C(=O)c1cc2cnc(Nc3ccc(C(=O)N4CC5CCC(C4)N5)cn3)nc2n1C1CCCCCC1 [Example 4] : 7.07 µM
CN(C)C(=O)c1cc2cnc(Nc3ccc(C(=O)N4CC5CC4CN5)cn3)nc2n1C1CCCCC1 (centres unmarked) [Example 67] : 10.4 µM
CN(C)C(=O)c1cc2cnc(Nc3ccc(C(=O)N4CC5CCC(C4)N5)cn3)nc2n1C1CCCCC1 [Example 66] : > 15 µM
CN(C)C(=O)c1cc2cnc(Nc3ccc(C(=O)N4CC5CCC(C4)C5N(C)C)cn3)nc2n1C1CCCC1 (centres unmarked) [Example 34] : > 15 µM

For record CN1CCCC2(C1)CN(c1ccc(Nc3ncc4cc(C(=O)N(C)C)n(C5CCCC5)c4n3)nc1)C(=O)O2 (centres unmarked) [Example 108] the listed IC50 is > 15 µM

For record CN(C)C(=O)c1cc2cnc(Nc3ccc(N4CCC5(CCCN5)C4=O)cn3)nc2n1C1CCCOC1 (centres unmarked) [Example 121] the listed IC50 is > 15 µM

For record CN(C)C(=O)c1cc2cnc(Nc3ccc(N4C[C@@H]5CC[C@H](CC4=O)N5C)cn3)nc2n1C1CCCC1 [Example 141] the listed IC50 is > 15 µM

====

Tested on: phosphorylation of pRb at the Ser780 site in JeKo-1 mantle cell lymphoma cells
Assay: CDK4 cellular assay: ELISA of pRb phosphorylation at Ser780 in JeKo-1 cells
Assay type: cell-based
Settings: Homo sapiens, JeKo-1, JeKo-1 cells, p-pRb % inhibition adjusted with total pRb levels; read-out: Normalized cellular ppRb inhibition IC50
pIC50 values for the compounds below.
Bear in mind: pIC50 is minus log10 of a mol/L concentration; give just that figure.

Examples with their reported pIC50 follow.
CN(C)C(=O)c1cc2cnc(Nc3ccc(C(=O)N4CC5CCC(C4)N5)cn3)nc2n1C1CCCCC1 : 7.39
CN(C)C(=O)c1cc2cnc(Nc3ccc(C(=O)N4CC5CCC(C4)N5CCO)cn3)nc2n1C1CCCC1 : 7.16
CC(=O)N1[C@@H]2CC[C@H]1CN(c1ccc(Nc3ncc4cc(C(=O)N(C)C)n(C5CCCC5)c4n3)nc1)C(=O)C2 : 6.20

Now consider a different compound.
For record CN(C)C(=O)c1cc2cnc(Nc3ccc(N4C[C@@H]5CC[C@H](CC4=O)N5)cn3)nc2n1-c1ccccc1 the listed pIC50 is 6.66

====

pIC50 values for the molecules below.
System: phosphorylation of pRb at the Ser780 site in JeKo-1 mantle cell lymphoma cells
Experiment: CDK4 cellular assay: ELISA of pRb phosphorylation at Ser780 in JeKo-1 cells
Format: cell-based
Conditions: Homo sapiens, JeKo-1, JeKo-1 cells, p-pRb % inhibition adjusted with total pRb levels; read-out: Normalized cellular ppRb inhibition IC50
Bear in mind: pIC50 is minus log10 of a mol/L concentration; give just that figure.

Examples with their reported pIC50 follow.
CN(C)C(=O)c1cc2cnc(Nc3ccc(C(=O)N4CC5CNC(C5)C4)cn3)nc2n1C1CCCC1 (racemic) : 6.92
CN1CCCC2(C1)CN(c1ccc(Nc3ncc4cc(C(=O)N(C)C)n(C5CCCC5)c4n3)nc1)C(=O)O2 (stereo not shown) : 7.16
CN(C)C(=O)c1cc2cnc(Nc3ccc(C(=O)N4CCN5CCC[C@@H]5C4)cn3)nc2n1C1CCCC1 : 6.40

Now consider a different molecule.
For record CN(C)C(=O)c1cc2cnc(Nc3ccc(N4C[C@@H]5CC[C@H](CC4=O)N5)cn3)nc2n1C1CCC1 the listed pIC50 is 7.42
